Property: percent reduction in ELISA signal; scope: individual binders
biological target: Antibody No. 245.1; test: peptide blocking ELISA on plate-bound VISTA, peptide 2 ug/mL
property.name: percent reduction in ELISA signal (%)

>  <binder>
HRVHGAMELQVQTGK (synthetic overlapping peptide from human VISTA) [Spiked Peptide 26 (HRVHGAMELQVQTGK)]

>  <readout.unit>
%

>  <val>
0

$$$$
>  <binder>
TFQDLHLHHGGHQAA (synthetic overlapping peptide from human VISTA) [Spiked Peptide 13 (TFQDLHLHHGGHQAA)]

>  <readout.unit>
%

>  <val>
3

$$$$
>  <binder>
FKVATPYSLYVCPEG (synthetic overlapping peptide from human VISTA) [Spiked Peptide 1 (FKVATPYSLYVCPEG)]

>  <readout.unit>
%

>  <val>
2

$$$$
>  <binder>
GPVDKGHDVTFYKTW (synthetic overlapping peptide from human VISTA) [Spiked Peptide 6 (GPVDKGHDVTFYKTW)]

>  <readout.unit>
%

>  <val>
3

$$$$
>  <binder>
LAQRHGLESASDHHG (synthetic overlapping peptide from human VISTA) [Spiked Peptide 17 (LAQRHGLESASDHHG)]

>  <readout.unit>
%

>  <val>
13

$$$$
>  <binder>
DAPSNCVVYPSSSQE (synthetic overlapping peptide from human VISTA) [Spiked Peptide 29 (DAPSNCVVYPSSSQE)]

>  <readout.unit>
%

>  <val>
0

$$$$
>  <binder>
VVEIRHHHSEHRVHG (synthetic overlapping peptide from human VISTA) [Spiked Peptide 24 (VVEIRHHHSEHRVHG)]

>  <readout.unit>
%

>  <val>
8

$$$$
>  <binder>
GEVQTCSERRPIRNL (synthetic overlapping peptide from human VISTA) [Spiked Peptide 10 (GEVQTCSERRPIRNL)]

>  <readout.unit>
%

>  <val>
0

$$$$
>  <binder>
PIRNLTFQDLHLHHG (synthetic overlapping peptide from human VISTA) [Spiked Peptide 12 (PIRNLTFQDLHLHHG)]

>  <readout.unit>
%

>  <val>
20

$$$$
>  <binder>
VQTGKDAPSNCVVYP (synthetic overlapping peptide from human VISTA) [Spiked Peptide 28 (VQTGKDAPSNCVVYP)]

>  <readout.unit>
%

>  <val>
0

$$$$
>  <binder>
FYKTWYRSSRGEVQT (synthetic overlapping peptide from human VISTA) [Spiked Peptide 8 (FYKTWYRSSRGEVQT)]

>  <readout.unit>
%

>  <val>
8

$$$$
>  <binder>
YRSSRGEVQTCSERR (synthetic overlapping peptide from human VISTA) [Spiked Peptide 9 (YRSSRGEVQTCSERR)]

>  <readout.unit>
%

>  <val>
4

$$$$
>  <binder>
LLDSGLYCCLVVEIR (synthetic overlapping peptide from human VISTA) [Spiked Peptide 22 (LLDSGLYCCLVVEIR)]

>  <readout.unit>
%

>  <val>
0

$$$$
>  <binder>
SSSQESENITAA (synthetic overlapping peptide from human VISTA) [Spiked Peptide 31 (SSSQESENITAA)]

>  <readout.unit>
%

>  <val>
0

$$$$
